# experimental_target: hTLR7 (Homo sapiens)
# Sequence (Q9NYK1 27-1049): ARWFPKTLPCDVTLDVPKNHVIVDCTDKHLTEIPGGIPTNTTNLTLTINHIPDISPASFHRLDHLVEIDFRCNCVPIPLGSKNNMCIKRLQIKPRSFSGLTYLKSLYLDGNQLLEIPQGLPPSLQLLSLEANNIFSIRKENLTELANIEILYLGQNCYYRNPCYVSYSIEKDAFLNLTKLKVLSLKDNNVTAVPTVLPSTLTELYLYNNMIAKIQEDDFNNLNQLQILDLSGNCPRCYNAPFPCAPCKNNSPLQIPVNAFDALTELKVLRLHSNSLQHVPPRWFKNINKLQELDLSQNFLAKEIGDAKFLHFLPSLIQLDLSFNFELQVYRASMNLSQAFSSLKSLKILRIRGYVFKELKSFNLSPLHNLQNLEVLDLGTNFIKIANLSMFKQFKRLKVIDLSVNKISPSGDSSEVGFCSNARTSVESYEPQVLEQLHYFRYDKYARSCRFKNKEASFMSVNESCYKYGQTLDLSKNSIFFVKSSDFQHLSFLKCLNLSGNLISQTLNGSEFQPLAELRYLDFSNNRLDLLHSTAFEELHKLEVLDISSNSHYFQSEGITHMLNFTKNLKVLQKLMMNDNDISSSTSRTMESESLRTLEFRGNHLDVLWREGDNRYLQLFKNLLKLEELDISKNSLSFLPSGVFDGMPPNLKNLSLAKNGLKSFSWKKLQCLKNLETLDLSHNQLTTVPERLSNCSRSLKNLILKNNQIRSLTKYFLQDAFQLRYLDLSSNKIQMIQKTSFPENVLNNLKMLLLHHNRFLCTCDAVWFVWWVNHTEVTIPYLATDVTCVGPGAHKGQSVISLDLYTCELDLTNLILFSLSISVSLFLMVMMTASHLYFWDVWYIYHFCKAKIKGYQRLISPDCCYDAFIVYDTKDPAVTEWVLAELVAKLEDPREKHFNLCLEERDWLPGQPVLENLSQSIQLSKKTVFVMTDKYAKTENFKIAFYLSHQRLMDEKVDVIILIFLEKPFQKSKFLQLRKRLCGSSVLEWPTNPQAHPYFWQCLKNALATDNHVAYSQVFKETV
# assay_explanation: HEK293-Blue-hTLR-7 cells assay (SEAP reporter, R848 stimulation)
# Type: cell-based
# Parameters: host or cells: HEK293 (HEK-Blue)
# assay_setup: HEK293-Blue-hTLR7 cells, R848, 20 hrs; read-out: HEK/hTLR7 IC50
pIC50: −log10 of the molar value.
parameter: pIC50

Sample records with pIC50:
1. C[C@@H]1CN(c2ccc(C#N)c3ncccc23)C[C@H](CN2CCN(c3ncnc4c3CNCC4)CC2)O1 [Example 61]
8.30
2. C[C@@H]1CN(c2ccc(C#N)n3ncc(F)c23)C[C@H](CN2CCN(c3cnc4c(c3)CNC4)CC2)O1 [Example 26]
7.41
3. C[C@@H]1CN(c2ccc(C#N)c3ncccc23)C[C@H](CN2CCCN(c3nc4c(s3)CNCC4)CC2)O1 [Example 33]
7.77
4. C[C@@H]1CN(c2ccc(C#N)c3nccnc23)C[C@H](CN2CCN(c3cc4c(cn3)CCN[C@H]4C)CC2)O1 (single isomer, unassigned) [Example 88]
8.22

I: C[C@@H]1CN(c2ccc(C#N)c3ncccc23)C[C@H](CN2CCN(c3cnc4c(c3)CNCC4)CC2)O1 [Example 21]
II: C[C@@H]1CN(c2ccc(C#N)c3ncccc23)C[C@H](CN2CCN(c3cc4c(cn3)CN[C@@H](C)C4)CC2)O1 (single isomer, unassigned) [Example 71]
Q) Please indicate which has the smaller reported pIC50: I , or II . Could you answer with the label of the item you picked?
A) II

I: C[C@@H]1CN(c2ccc(C#N)c3ncccc23)C[C@H](CN2CCN(c3ccc4c(n3)CCNC4)C[C@H](O)C2)O1 (single isomer, unassigned) [Example 35A]
II: C[C@@H]1CN(c2ccc(C#N)c3ncccc23)C[C@H](CN2C[C@H]3CN(c4ccc5c(n4)CCNC5)CC[C@@H]32)O1 (single isomer, unassigned) [Example 54]
Q) Lowest pIC50? choose I or II Selection: enter the item's label.
A) I
(I: 7.22, II: 8.22)
